measuredOn: human NHE-3 (Homo sapiens, UniProt P48764)
Construct: expressed in transfected cells; host or cells: Opossum kidney (OK) cells (ATCC), transfected by electroporation
Sequence (P48764 26-834): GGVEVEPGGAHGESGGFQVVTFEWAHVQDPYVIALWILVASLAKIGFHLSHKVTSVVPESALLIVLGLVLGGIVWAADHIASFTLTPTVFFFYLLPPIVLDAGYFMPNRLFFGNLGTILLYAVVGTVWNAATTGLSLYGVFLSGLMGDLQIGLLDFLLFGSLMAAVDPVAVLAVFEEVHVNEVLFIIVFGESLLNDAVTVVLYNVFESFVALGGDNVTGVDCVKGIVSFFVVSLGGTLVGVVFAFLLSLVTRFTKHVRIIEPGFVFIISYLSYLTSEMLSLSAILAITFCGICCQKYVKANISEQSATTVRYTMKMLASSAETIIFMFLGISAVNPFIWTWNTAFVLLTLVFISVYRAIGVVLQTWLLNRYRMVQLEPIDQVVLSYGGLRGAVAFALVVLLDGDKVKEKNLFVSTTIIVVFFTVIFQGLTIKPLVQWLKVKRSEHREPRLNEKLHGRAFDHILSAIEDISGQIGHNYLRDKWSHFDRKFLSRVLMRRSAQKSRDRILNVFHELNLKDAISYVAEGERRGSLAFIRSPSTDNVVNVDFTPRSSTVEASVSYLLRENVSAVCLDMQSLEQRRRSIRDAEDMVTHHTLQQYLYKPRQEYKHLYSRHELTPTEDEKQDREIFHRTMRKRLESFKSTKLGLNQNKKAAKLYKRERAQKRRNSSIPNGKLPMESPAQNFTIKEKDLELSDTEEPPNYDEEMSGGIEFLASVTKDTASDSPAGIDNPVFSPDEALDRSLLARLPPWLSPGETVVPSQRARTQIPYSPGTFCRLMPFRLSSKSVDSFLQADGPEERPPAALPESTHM
assayMethodText: Cell-based assay of NHE-3 activity (human NHE3 inhibition assay)
statedConditions: OK cells with human NHE-3 gene, BCECF pH dye, 0-30 μM test compound
Experimental: Rat or human NHE-3-mediated Na^+-dependent H^+ antiport was measured using a modification of the pH sensitive dye method originally reported by Paradiso (Proc. Natl. Acad. Sci. USA. (1984) 81(23): 7436-7440). Opossum kidney (OK) cells were obtained from the ATCC and propagated per their instructions. The rat NHE-3 gene (GenBank M85300) or the human NHE-3 gene (GenBank NM_004174.1) was introduced into OK cells via electroporation, and cells were seeded into 96 well plates and grown overnight. […]

# inputSmiles, Human NHE3 pIC50
rows = [
    ("CN1Cc2c(Cl)cc(Cl)cc2[C@H](c2cccc(S(=O)(=O)N(CCO)CCOCCOCCNC(=O)NCCCN(CCCNC(=O)NCCOCCOCCN(CCO)S(=O)(=O)c3cccc([C@@H]4CN(C)Cc5c(Cl)cc(Cl)cc54)c3)CCCNC(=O)NCCOCCOCCN(CCO)S(=O)(=O)c3cccc([C@@H]4CN(C)Cc5c(Cl)cc(Cl)cc54)c3)c2)C1", "C (C NHE3 pIC50 > 7)"),
    ("CN1Cc2c(Cl)cc(Cl)cc2[C@H](c2cccc(S(=O)(=O)NCCOCCOCCNC(=O)CCC(CCC(=O)NCCOCCOCCNS(=O)(=O)c3cccc([C@@H]4CN(C)Cc5c(Cl)cc(Cl)cc54)c3)(CCC(=O)NCCOCCOCCNS(=O)(=O)c3cccc([C@@H]4CN(C)Cc5c(Cl)cc(Cl)cc54)c3)NC(=O)CCC(=O)O)c2)C1", "C (C NHE3 pIC50 > 7)"),
]

###

measuredOn: Rat NHE-3 (Rattus norvegicus)
Construct: expressed in transfected cells; host or cells: Opossum kidney (OK) cells (ATCC), transfected by electroporation
Sequence (P26433 29-831): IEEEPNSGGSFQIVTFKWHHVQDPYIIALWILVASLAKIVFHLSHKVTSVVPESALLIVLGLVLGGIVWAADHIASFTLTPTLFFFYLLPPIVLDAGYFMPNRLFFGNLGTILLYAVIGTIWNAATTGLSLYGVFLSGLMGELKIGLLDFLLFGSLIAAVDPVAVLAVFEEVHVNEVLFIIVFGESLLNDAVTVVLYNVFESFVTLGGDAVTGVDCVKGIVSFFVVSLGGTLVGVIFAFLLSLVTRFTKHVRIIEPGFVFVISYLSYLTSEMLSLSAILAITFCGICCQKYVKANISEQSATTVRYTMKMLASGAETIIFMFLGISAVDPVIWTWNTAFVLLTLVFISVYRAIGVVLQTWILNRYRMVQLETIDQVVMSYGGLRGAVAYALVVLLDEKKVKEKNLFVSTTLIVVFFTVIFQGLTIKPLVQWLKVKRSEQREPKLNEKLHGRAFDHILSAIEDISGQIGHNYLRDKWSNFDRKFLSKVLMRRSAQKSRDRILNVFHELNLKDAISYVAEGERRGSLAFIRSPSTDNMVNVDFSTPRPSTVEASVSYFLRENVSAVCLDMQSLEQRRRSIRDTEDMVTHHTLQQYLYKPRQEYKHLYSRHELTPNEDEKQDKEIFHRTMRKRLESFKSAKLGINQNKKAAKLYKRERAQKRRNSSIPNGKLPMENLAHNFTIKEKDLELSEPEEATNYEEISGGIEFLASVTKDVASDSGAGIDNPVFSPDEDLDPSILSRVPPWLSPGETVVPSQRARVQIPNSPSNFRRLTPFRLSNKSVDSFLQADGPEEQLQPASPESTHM
assayMethodText: Cell-based assay of NHE-3 activity (rat NHE-3 prompt inhibition)
statedConditions: OK cells with rat NHE-3 gene, compound present during pH recovery
assayMetric: Rat NHE3 pIC50 (prompt)

Field: example entries. Status: answers known.
# molecule, valueMeasured
records = [
    ("CN1Cc2c(Cl)cc(Cl)cc2[C@H](c2cccc(S(=O)(=O)NCCOCCOCCNC(=O)NCCN(CCNC(=O)NCCOCCOCCNS(=O)(=O)c3cccc([C@@H]4CN(C)Cc5c(Cl)cc(Cl)cc54)c3)C(=O)CCOCCOCCOCCOCCOCCC(=O)N(CCNC(=O)NCCOCCOCCNS(=O)(=O)c3cccc([C@@H]4CN(C)Cc5c(Cl)cc(Cl)cc54)c3)CCNC(=O)NCCOCCOCCNS(=O)(=O)c3cccc([C@@H]4CN(C)Cc5c(Cl)cc(Cl)cc54)c3)c2)C1 [Example 59]", "B (B NHE3 pIC50 5-7)"),
    ("CN1Cc2c(Cl)cc(Cl)cc2C(c2cccc(S(=O)(=O)NCCOCCOCCNC(=O)CCC(CCC(=O)NCCOCCOCCNS(=O)(=O)c3cccc(C4CN(C)Cc5c(Cl)cc(Cl)cc54)c3)(CCC(=O)NCCOCCOCCNS(=O)(=O)c3cccc(C4CN(C)Cc5c(Cl)cc(Cl)cc54)c3)NC(=O)N(C)CC(O)C(O)C(O)C(O)CO)c2)C1 (stereo not drawn) [Example 29]", "C (C NHE3 pIC50 > 7)"),
    ("CN1Cc2c(Cl)cc(Cl)cc2[C@H](c2cccc(S(=O)(=O)NCCOCCOCCNC(=O)NCCCC(CCCNC(=O)NCCOCCOCCNS(=O)(=O)c3cccc([C@@H]4CN(C)Cc5c(Cl)cc(Cl)cc54)c3)(CCCNC(=O)NCCOCCOCCNS(=O)(=O)c3cccc([C@@H]4CN(C)Cc5c(Cl)cc(Cl)cc54)c3)NC(=O)CCC(=O)O)c2)C1 [Example 63]", "C (C NHE3 pIC50 > 7)"),
    ("CN1Cc2c(Cl)cc(Cl)cc2C(c2cccc(S(=O)(=O)NCCOCCOCCNC(=O)CCC(CCC(=O)NCCOCCOCCNS(=O)(=O)c3cccc(C4CN(C)Cc5c(Cl)cc(Cl)cc54)c3)(CCC(=O)NCCOCCOCCNS(=O)(=O)c3cccc(C4CN(C)Cc5c(Cl)cc(Cl)cc54)c3)NC(=O)C3CCCCC3C(=O)O)c2)C1 (stereo not drawn) [Example 28]", "B (B NHE3 pIC50 5-7)"),
    ("CN1Cc2c(Cl)cc(Cl)cc2[C@H](c2cccc(S(=O)(=O)NCCOCCOCCNC(=O)NCCN(CCNC(=O)NCCOCCOCCNS(=O)(=O)c3cccc([C@@H]4CN(C)Cc5c(Cl)cc(Cl)cc54)c3)C(=O)CCOCCOCCOCCOCCOCCOCCOCCOCCOCCC(=O)N(CCNC(=O)NCCOCCOCCNS(=O)(=O)c3cccc([C@@H]4CN(C)Cc5c(Cl)cc(Cl)cc54)c3)CCNC(=O)NCCOCCOCCNS(=O)(=O)c3cccc([C@@H]4CN(C)Cc5c(Cl)cc(Cl)cc54)c3)c2)C1 [Example 61]", "B (B NHE3 pIC50 5-7)"),
]

Let us move to another entry and its Rat NHE3 pIC50 (prompt).
Q: Please give the documented Rat NHE3 pIC50 (prompt) of CN1Cc2c(Cl)cc(Cl)cc2[C@H](c2cccc(S(=O)(=O)NCCOCCOCCNC(=O)CCC(CCC(=O)NCCOCCOCCNS(=O)(=O)c3cccc([C@@H]4CN(C)Cc5c(Cl)cc(Cl)cc54)c3)(CCC(=O)NCCOCCOCCNS(=O)(=O)c3cccc([C@@H]4CN(C)Cc5c(Cl)cc(Cl)cc54)c3)NC(=O)N(C)C)c2)C1 [Example 25]
Result: B (B NHE3 pIC50 5-7)

###

What dose excreted was measured for each of the following?
assayMethodText: Fecal recovery
Type: in vivo, Sprague Dawley rats
statedConditions: male, Sprague-Dawley, faeces; rat, 1 mg/kg oral gavage, collection time 72 h
Please state the number and follow it with the unit.

# molecule, valueMeasured
rows = [
    ("CN1Cc2c(Cl)cc(Cl)cc2[C@H](c2cccc(S(=O)(=O)NCCOCCOCCNC(=O)CCC(CCC(=O)NCCOCCOCCNS(=O)(=O)c3cccc([C@@H]4CN(C)Cc5c(Cl)cc(Cl)cc54)c3)(CCC(=O)NCCOCCOCCNS(=O)(=O)c3cccc([C@@H]4CN(C)Cc5c(Cl)cc(Cl)cc54)c3)NC(=O)NCCS(=O)(=O)O)c2)C1 [Example 3]", "110%"),
]

Working through the 2 molecules below one at a time, give dose excreted for each.
1. CN1Cc2c(Cl)cc(Cl)cc2[C@H](c2cccc(S(=O)(=O)NCCOCCOCCNC(=O)CCC(CCC(=O)NCCOCCOCCNS(=O)(=O)c3cccc([C@@H]4CN(C)Cc5c(Cl)cc(Cl)cc54)c3)(CCC(=O)NCCOCCOCCNS(=O)(=O)c3cccc([C@@H]4CN(C)Cc5c(Cl)cc(Cl)cc54)c3)NC(=O)NCCN3CCOCC3)c2)C1 [Example 17]
2. CN(C)CC(=O)NC(CCC(=O)NCCOCCOCCNS(=O)(=O)c1cccc([C@@H]2CN(C)Cc3c(Cl)cc(Cl)cc32)c1)(CCC(=O)NCCOCCOCCNS(=O)(=O)c1cccc([C@@H]2CN(C)Cc3c(Cl)cc(Cl)cc32)c1)CCC(=O)NCCOCCOCCNS(=O)(=O)c1cccc([C@@H]2CN(C)Cc3c(Cl)cc(Cl)cc32)c1 [Example 14]

Result:
1: 96.9%; 2: 75.3%

###

measuredOn: human NHE-3 (Homo sapiens)
Construct: expressed in transfected cells; host or cells: Opossum kidney (OK) cells (ATCC), transfected by electroporation
assayMethodText: Cell-based assay of NHE-3 activity (human NHE3 inhibition assay)
statedConditions: OK cells with human NHE-3 gene, BCECF pH dye, 0-30 μM test compound

# molecule, Human NHE3 pIC50
records = [
    ("CN1Cc2c(Cl)cc(Cl)cc2[C@H](c2cccc(S(=O)(=O)NCCOCCOCCNC(=O)CCC(CCC(=O)NCCOCCOCCNS(=O)(=O)c3cccc([C@@H]4CN(C)Cc5c(Cl)cc(Cl)cc54)c3)(CCC(=O)NCCOCCOCCNS(=O)(=O)c3cccc([C@@H]4CN(C)Cc5c(Cl)cc(Cl)cc54)c3)NC(=O)NC(CO)CO)c2)C1", "C (C NHE3 pIC50 > 7)"),
    ("CN1Cc2c(Cl)cc(Cl)cc2[C@H](c2cccc(S(=O)(=O)NCCOCCOCCNC(=O)NCCCC(CCCNC(=O)NCCOCCOCCNS(=O)(=O)c3cccc([C@@H]4CN(C)Cc5c(Cl)cc(Cl)cc54)c3)(CCCNC(=O)NCCOCCOCCNS(=O)(=O)c3cccc([C@@H]4CN(C)Cc5c(Cl)cc(Cl)cc54)c3)NC(=O)NC[C@H](O)[C@@H](O)[C@H](O)[C@H](O)CO)c2)C1", "C (C NHE3 pIC50 > 7)"),
    ("CN1Cc2c(Cl)cc(Cl)cc2C(c2cccc(S(=O)(=O)NCCOCCOCCNC(=O)CCC(CCC(=O)NCCOCCOCCNS(=O)(=O)c3cccc(C4CN(C)Cc5c(Cl)cc(Cl)cc54)c3)(CCC(=O)NCCOCCOCCNS(=O)(=O)c3cccc(C4CN(C)Cc5c(Cl)cc(Cl)cc54)c3)NC(=O)C3CCCCC3C(=O)O)c2)C1 (stereo not drawn)", "C (C NHE3 pIC50 > 7)"),
]
